Target chain: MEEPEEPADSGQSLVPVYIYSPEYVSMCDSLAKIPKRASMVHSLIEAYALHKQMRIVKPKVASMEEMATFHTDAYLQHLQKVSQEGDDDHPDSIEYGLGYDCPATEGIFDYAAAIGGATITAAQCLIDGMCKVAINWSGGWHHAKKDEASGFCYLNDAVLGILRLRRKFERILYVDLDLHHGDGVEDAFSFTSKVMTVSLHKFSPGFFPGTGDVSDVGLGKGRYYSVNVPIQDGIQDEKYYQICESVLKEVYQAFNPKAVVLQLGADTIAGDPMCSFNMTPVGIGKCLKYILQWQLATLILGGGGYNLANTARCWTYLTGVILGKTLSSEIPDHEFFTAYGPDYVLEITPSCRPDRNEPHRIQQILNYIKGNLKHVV
Assay readout: pIC50
As a rule, pIC50 stands for the negative log10 of the concentration, concentration in M.

Reference set, count: 6
Cc1ccc(-n2c(SCc3ccc(C(=O)NO)cc3)nc3cc(Cl)ccc3c2=O)cc1C = 4.85
O=C(NO)c1ccc(CSc2nc3cc(Cl)ccc3c(=O)n2-c2ccc(Cl)cc2)cc1 = 6.85
O=C(NO)c1ccc(CSc2nc3ccccc3c(=O)n2-c2ccc(Br)cc2)cc1 = 5.52
Cc1cccc2nc(SCc3ccc(C(=O)NO)cc3)n(-c3ccccc3)c(=O)c12 = 5.57
Cc1cccc2nc(SCc3ccc(C(=O)NO)cc3)n(-c3ccc(Cl)cc3)c(=O)c12 = 5.23
O=C(NO)c1ccc(CSc2nc3cc(Cl)ccc3c(=O)n2-c2ccccc2)cc1 = 5.40

// moving on: another record for pIC50
Q) For the compound shown here, Cc1ccc(-n2c(SCc3ccc(C(=O)NO)cc3)nc3ccccc3c2=O)cc1 , give the reported pIC50.
A) 5.64

* * *

Each record here notes measured log10 IC50.
Target: HDAC6 (Homo sapiens)
Construct: Full-length recombinant HDAC6 was purchased from BPS Bioscience
Sequence (Q9UBN7 whole entry): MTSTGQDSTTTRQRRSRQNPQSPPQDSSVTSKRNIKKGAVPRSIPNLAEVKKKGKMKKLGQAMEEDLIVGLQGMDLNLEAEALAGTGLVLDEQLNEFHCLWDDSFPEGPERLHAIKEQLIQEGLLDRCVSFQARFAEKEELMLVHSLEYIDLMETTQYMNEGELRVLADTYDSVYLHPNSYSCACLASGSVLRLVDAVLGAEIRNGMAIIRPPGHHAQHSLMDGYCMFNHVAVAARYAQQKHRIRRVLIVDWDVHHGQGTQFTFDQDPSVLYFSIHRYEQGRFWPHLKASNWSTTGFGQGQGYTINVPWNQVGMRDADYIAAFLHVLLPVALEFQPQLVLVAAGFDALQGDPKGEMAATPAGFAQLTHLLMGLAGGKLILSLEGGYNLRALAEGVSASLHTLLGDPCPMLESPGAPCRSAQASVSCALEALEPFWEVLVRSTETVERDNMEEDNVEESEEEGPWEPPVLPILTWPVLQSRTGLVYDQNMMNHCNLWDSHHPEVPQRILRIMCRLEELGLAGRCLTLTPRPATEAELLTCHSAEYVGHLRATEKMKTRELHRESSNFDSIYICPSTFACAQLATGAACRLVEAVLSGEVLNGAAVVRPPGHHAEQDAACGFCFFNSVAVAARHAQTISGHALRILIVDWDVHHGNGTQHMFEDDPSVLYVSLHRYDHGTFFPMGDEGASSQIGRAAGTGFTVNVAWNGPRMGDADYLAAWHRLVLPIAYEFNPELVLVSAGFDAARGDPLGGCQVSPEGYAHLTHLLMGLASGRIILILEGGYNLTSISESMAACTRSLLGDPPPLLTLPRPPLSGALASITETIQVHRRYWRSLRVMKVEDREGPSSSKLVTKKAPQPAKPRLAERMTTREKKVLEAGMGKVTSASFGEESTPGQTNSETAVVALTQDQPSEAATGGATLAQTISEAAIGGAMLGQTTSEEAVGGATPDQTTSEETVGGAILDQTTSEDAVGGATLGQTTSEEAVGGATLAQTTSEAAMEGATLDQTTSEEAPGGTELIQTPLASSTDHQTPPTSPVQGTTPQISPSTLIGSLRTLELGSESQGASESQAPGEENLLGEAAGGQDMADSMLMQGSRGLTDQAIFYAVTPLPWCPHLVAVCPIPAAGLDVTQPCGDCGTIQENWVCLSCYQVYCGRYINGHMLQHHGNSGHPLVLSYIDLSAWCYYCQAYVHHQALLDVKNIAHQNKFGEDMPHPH
Assay: HDAC enzyme activity assay (fluorogenic, Boc-Lys(acetyl)-AMC), HDAC6
Settings: class IIb HDAC6; mean ± SD, triplicate
Hello, just confirming the data are log10 of IC50 with units of nM.

Reference set, count: 5
O=C(NO)c1ccc(CSc2nc3ccccc3c(=O)n2-c2ccc(Cl)cc2)cc1 [Compound 5a] = 3.75
Cc1ccc(-n2c(SCc3ccc(C(=O)NO)cc3)nc3ccccc3c2=O)cc1 [Compound 5c] = 2.76
O=C(NO)c1ccc(CSc2nc3ccccc3c(=O)n2-c2ccccc2)cc1 [Compound 5b] = 2.18
CCc1ccc(-n2c(SCc3ccc(C(=O)NO)cc3)nc3ccccc3c2=O)cc1 [Compound 5d] = 2.45
O=C(NO)c1ccc(CSc2nc3cc(Cl)ccc3c(=O)n2-c2ccccc2F)cc1 [Compound 5m] = 2.32

Q) For the compound shown here, O=C(NO)c1ccc(CSc2nc3ccccc3c(=O)n2-c2cccc(Cl)c2)cc1 [Compound 5h] , give the reported log10 IC50.
A) 2.23

Q) For the compound shown here, Cc1cccc2nc(SCc3ccc(C(=O)NO)cc3)n(-c3ccccc3)c(=O)c12 [Compound 5p] , give the reported log10 IC50.
A) 2.34

Source listed as paper PMC10341573.
